- Experimental target: T1, pig serum albumin (pig, UniProt P08835 25-607)
- T1 construct: Bought protein, immobilized on a CM5 chip by amine coupling; also called Pig SA
- Protocol text: SPR (Biacore 8K), albumin immobilized on CM5 chip, 25 C, 1:1 kinetic fit
Classify: true when Kd is strictly less than 20 nM; false when Kd is not.

RLN Analog 4 (other, Single-chain fusion: VHH - (PGPQ)8 L1 - RLN2 B chain (desB1) - L2 - RLN2 A chain) EVQLLESGGGLVQPGGSLRLSCAASGRYIDETAVAWFRQAPGKEREFVAGIGGGVDITYYADSVKGRFTISRDNSKNTLYLQMNSLRPEDTAVYYCAARPGRPLITSKVADLYPYWGQGTLVTVSSPGPQPGPQPGPQPGPQPGPQPGPQPGPQPGPQSWMEEVIKLCGRELVRAQIAICGMSTWSGGGSGGSGGGQLYSALANKCCHVGCTKRSLARFC
true
RLN Analog 2 (other, Single-chain fusion: VHH - (PGPA)8 L1 - RLN2 A chain - L2 - RLN2 B chain (desB1)) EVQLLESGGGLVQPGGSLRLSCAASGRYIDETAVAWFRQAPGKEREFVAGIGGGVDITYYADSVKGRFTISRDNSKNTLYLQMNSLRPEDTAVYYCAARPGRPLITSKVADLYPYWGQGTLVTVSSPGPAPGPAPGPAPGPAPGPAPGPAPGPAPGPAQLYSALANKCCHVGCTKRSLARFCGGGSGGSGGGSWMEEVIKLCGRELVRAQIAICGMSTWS
true

### Prompt Given RLN Analog 11 (other, Single-chain fusion: VHH - (G4Q)5 L1 - RLN2 B chain (desB1) - L2 of thirteen residues - RLN2 A chain (desA1-4)) EVQLLESGGGLVQPGGSLRLSCAASGRYIDETAVAWFRQAPGKEREFVAGIGGGVDITYYADSVKGRFTISRDNSKNTLYLQMNSLRPEDTAVYYCAARPGRPLITSKVADLYPYWGQGTLVTVSSGGGGQGGGGQGGGGQGGGGQGGGGQSWMEEVIKLCGRELVRAQIAICGMSTWSGGGSGGSGGSGGGALANKCCHVGCTKRSLARFC , is recorded Kd strictly lower than 20 nM?
### Response true

### Prompt Is 20 nM strictly greater than the binder's reported Kd? binder: RLN Analog 6 (other, Single-chain fusion: RLN2 B chain (desB1) - L2 - RLN2 A chain - PGPQ-repeat L1 - VHH (C-terminal)) SWMEEVIKLCGRELVRAQIAICGMSTWSGGGSGGSGGGQLYSALANKCCHVGCTKRSLARFCPGPQPGPQPGPQPGPQPGPQPGPQPGPQPGPQEVQLLESGGGLVQPGGSLRLSCAASGRYIDETAVAWFRQAPGKEREFVAGIGGGVDITYYADSVKGRFTISRDNSKNTLYLQMNSLRPEDTAVYYCAARPGRPLITSKVADLYPYWGQGTLVTVSSPP
### Response false

Attribution: patent US20260125446A1
